assay: total protein half-life in vivo (active degradation + dilution); higher = more stable protein; conditions: E. coli NCM3722 delta-smpB; growth: N-lim chemostat; doubling time 6 h
For each entry below, report its total protein half-life in vivo value.
Write the numeric value and follow it with the unit.

response.value for MKINQPAVAGTLESGDVMIRIAPLDTQDIDLQINSSVEKQFGDAIRTTILDVLARYNVRGVQLNVDDKGALDCILRARLEALLARASGIPALPWEDCQ (field: total protein half-life in vivo) = 1.09 h

Lookup result for MNPVPAQREYFLDSIRAWLMLLGIPFHISLIYSSHTWHVNSAESSLWLTLFNDFIHSFRMQVFFVISGYFSYMLFLRYPLKKWWKVRVERVGIPMLTAIPLLTLPQFIMLQYVKGKAESWPGLSLYDKYNTLAWELISHLWFLLVLVVMTTLCVWIFKRIRNNLENSDKTNKKFSMVKLSVIFLCLGIGYAVIRRTIFIVYPPILSNGMFNFIVMQTLFYLPFFILGALAFIFPHLKALFTTPSRGCTLAAALAFVAYLLNQRYGSGDAWMYETESVITMVLGLWMVNVVFSFGHRLLNFQSARVTYFVNASLFIYLVHHPLTLFFGAYITPHITSNWLGFLCGLIFVVGIAIILYEIHLRIPLLKFLFSGKPVVKRENDKAPAR ; measured total protein half-life in vivo: 6.23 h

# total protein half-life in vivo (sequence: MALPILLDCDPGHDDAIAIVLALASPELDVKAITSSAGNQTPEKTLRNVLRMLTLLNRTDIPVAGGAVKPLMRELIIADNVHGESGLDGPALPEPTFAPQNCTAVELMAKTLRESAEPVTIVSTGPQTNVALLLNSHPELHSKIARIVIMGGAMGLGNWTPAAEFNIYVDPEAAEIVFQSGIPVVMAGLDVTHKAQIHVEDTERFRAIGNPVSTIVAELLDFFLEYHKDEKWGFVGAPLHDPCTIAWLLKPELFTSVERWVGVETQGKYTQGMTVVDYYYLTGNKPNATVMVDVDRQGFVDLLADRLKFYA ) is 4.24 h

total protein half-life in vivo recorded for this sequence, MTSPNILLTRIDNRLVHGQVGVTWTSTIGANLLVVVDDVVANDDIQQKLMGITAETYGFGIRFFTIEKTINVIGKAAPHQKIFLICRTPQTVRKLVEGGIDLKDVNVGNMHFSEGKKQISSKVYVDDQDLTDLRFIKQRGVNVFIQDVPGDQKEQIPD , is 4.01 h

The sequence identified as MTNNPLIPQSKLPQLGTTIFTQMSALAQQHQAINLSQGFPDFDGPRYLQERLAHHVAQGANQYAPMTGVQALREAIAQKTERLYGYQPDADSDITVTAGATEALYAAITALVRNGDEVICFDPSYDSYAPAIALSGGIVKRMALQPPHFRVDWQEFAALLSERTRLVILNTPHNPSATVWQQADFAALWQAIAGHEIFVISDEVYEHINFSQQGHASVLAHPQLRERAVAVSSFGKTYHMTGWKVGYCVAPAPISAEIRKVHQYLTFSVNTPAQLALADMLRAEPEHYLALPDFYRQKRDILVNALNESRLEILPCEGTYFLLVDYSAVSTLDDVEFCQWLTQEHGVAAIPLSVFCADPFPHKLIRLCFAKKESTLLAAAERLRQL registered its total protein half-life in vivo at 2.01 h

Reported total protein half-life in vivo for MKLSRISAINWNKISDDKDLEVWNRLTSNFWLPEKVPLSNDIPAWQTLTVVEQQLTMRVFTGLTLLDTLQNVIGAPSLMPDALTPHEEAVLSNISFMEAVHARSYSSIFSTLCQTKDVDAAYAWSEENAPLQRKAQIIQQHYRGDDPLKKKIASVFLESFLFYSGFWLPMYFSSRGKLTNTADLIRLIIRDEAVHGYYIGYKYQKNMEKISLGQREELKSFAFDLLLELYDNELQYTDELYAETPWADDVKAFLCYNANKALMNLGYEPLFPAEMAEVNPAILAALSPNADENHDFFSGSGSSYVMGKAVETEDEDWNF was 2.03 h

Briefly, total protein half-life in vivo measured for MQKVVLATGNVGKVRELASLLSDFGLDIVAQTDLGVDSAEETGLTFIENAILKARHAAKVTALPAIADDSGLAVDVLGGAPGIYSARYSGEDATDQKNLQKLLETMKDVPDDQRQARFHCVLVYLRHAEDPTPLVCHGSWPGVITREPAGTGGFGYDPIFFVPSEGKTAAELTREEKSAISHRGQALKLLLDALRNG : 3.95 h

The measured total protein half-life in vivo associated with MMKTVKHLLCCAIAASALISTGVHAASWKDALSSAASELGNQNSTTQEGGWSLASLTNLLSSGNQALSADNMNNAAGILQYCAKQKLASVTDAENIKNQVLEKLGLNSEEQKEDTNYLDGIQGLLKTKDGQQLNLDNIGTTPLAEKVKTKACDLVLKQGLNFIS reads 2.56 h

Memo: MTSLVSLENVSVSFGQRRVLSDVSLELKPGKILTLLGPNGAGKSTLVRVVLGLVTPDEGVIKRNGKLRIGYVPQKLYLDTTLPLTVNRFLRLRPGTHKEDILPALKRVQAGHLINAPMQKLSGGETQRVLLARALLNRPQLLVLDEPTQGVDVNGQVALYDLIDQLRRELDCGVLMVSHDLHLVMAKTDEVLCLNHHICCSGTPEVVSLHPEFISMFGPRGAEQLGIYRHHHNHRHDLQGRIVLRRGNDRS [P0A9X1] , reported total protein half-life in vivo: 4.75 h

Short answer for MVINCAFIGFGKSTTRYHLPYVLNRKDSWHVAHIFRRHAKPEEQAPIYSHIHFTSDLDEVLNDPDVKLVVVCTHADSHFEYAKRALEAGKNVLVEKPFTPTLAQAKELFALAKSKGLTVTPYQNRRFDSCFLTAKKAIESGKLGEIVEVESHFDYYRPVAETKPGLPQDGAFYGLGVHTMDQIISLFGRPDHVAYDIRSLRNKANPDDTFEAQLFYGDLKAIVKTSHLVKIDYPKFIVHGKKGSFIKYGIDQQETSLKANIMPGEPGFAADDSVGVLEYVNDEGVTVREEMKPEMGDYGRVYDALYQTITHGAPNYVKESEVLTNLEILERGFEQASPSTVTLAK : total protein half-life in vivo was 4.91 h

Field total protein half-life in vivo (entry MQAEILLTLKLQQKLFADPRRISLLKHIALSGSISQGAKDAGISYKSAWDAINEMNQLSEHILVERATGGKGGGGAVLTRYGQRLIQLYDLLAQIQQKAFDVLSDDDALPLNSLLAAISRFSLQTSARNQWFGTITARDHDDVQQHVDVLLADGKTRLKVAITAQSGARLGLDEGKEVLILLKAPWVGITQDEAVAQNADNQLPGIISHIERGAEQCEVLMALPDGQTLCATVPVNEATSLQQGQNVTAYFNADSVIIATLC [P0A9G8] ) reads 5.84 h
